Source of measurements: patent US11058688B2

# TARGET OR SYSTEM: BRD4(49-170) bromodomain (Homo sapiens (Human), UniProt O60885)
# METHOD NOTES: BRD4 AlphaScreen Assay
# STUDY CONDITIONS: binding to biotin-H4(1-21) Ac-K5/8/12/16 peptide
This listing pairs compounds with measured IC50.
MEASURED METRIC: IC50

TEST SMILES | TARGET OR SYSTEM | MEASURED METRIC | MEASURED RESULT
CC(=O)N1CCn2c(C(C)C)nc(-c3ccc4c(c3)c(-c3cnn(C)c3)nn4C)c2C1 | BRD4(49-170) bromodomain (Homo sapiens (Human), UniProt O60885) | IC50 | > 10 µM
CNC(=O)c1cc(-c2ccc3c(c2)CCCN3c2nc(C3CC3)n3c2CN(C(C)=O)CC3)ccn1 | BRD4(49-170) bromodomain (Homo sapiens (Human), UniProt O60885) | IC50 | > 25 µM
CNC(=O)N1CCn2c(C(C)C)nc(-c3ccc4c(c3)c(-c3cnn(C)c3)nn4C)c2C1 | BRD4(49-170) bromodomain (Homo sapiens (Human), UniProt O60885) | IC50 | > 10 µM
CC(=O)N1CCn2c(C3CC3)nc(N3CCCc4cc(-c5cnn(CCN6CCOCC6)c5)ccc43)c2C1 | BRD4(49-170) bromodomain (Homo sapiens (Human), UniProt O60885) | IC50 | > 25 µM
CC(=O)N1CCn2c(Cl)nc(-c3ccc4c(c3)c(-c3cnn(C)c3)nn4C)c2C1 | BRD4(49-170) bromodomain (Homo sapiens (Human), UniProt O60885) | IC50 | > 10 µM
CC(=O)N1CCn2c(C3CCS(=O)(=O)CC3)nc(-c3ccc4c(c3)c(-c3cnn(C)c3)nn4C)c2C1 | BRD4(49-170) bromodomain (Homo sapiens (Human), UniProt O60885) | IC50 | > 25 µM
CC(=O)N1CCn2c(C3CC3)nc(-c3ccc4c(c3)c(-c3cn(C)nc3C)nn4C)c2C1 | BRD4(49-170) bromodomain (Homo sapiens (Human), UniProt O60885) | IC50 | > 25 µM
CC(=O)N1CCn2c(C3CC3)nc(-c3ccc4nn(C)c(-c5cnn(C)c5)c4c3F)c2C1 | BRD4(49-170) bromodomain (Homo sapiens (Human), UniProt O60885) | IC50 | > 25 µM
CNC(=O)N1CCn2c(C3CC3)nc(-c3c(F)ccc4cc(C5CCOCC5)ncc34)c2C1 | BRD4(49-170) bromodomain (Homo sapiens (Human), UniProt O60885) | IC50 | > 25 µM
CC(=O)N1CCn2c(C3CC3)nc(N3CCCc4cc(-c5cncc(S(C)(=O)=O)c5)ccc43)c2C1 | BRD4(49-170) bromodomain (Homo sapiens (Human), UniProt O60885) | IC50 | > 25 µM
CC(=O)N1CCn2c(C)nc(-c3ccc4c(c3)c(-c3cnn(C)c3)nn4C)c2C1 | BRD4(49-170) bromodomain (Homo sapiens (Human), UniProt O60885) | IC50 | > 10 µM
CNC(=O)N1CCn2c(C)nc(-c3ccc4c(c3)c(-c3cnn(C)c3)nn4C)c2C1 | BRD4(49-170) bromodomain (Homo sapiens (Human), UniProt O60885) | IC50 | > 10 µM
CNC(=O)N1CCn2c(C3CC3)nc(-c3cccc4nc(-c5cnn(C)c5)c(C#N)cc34)c2C1 | BRD4(49-170) bromodomain (Homo sapiens (Human), UniProt O60885) | IC50 | > 25 µM
CC(=O)N1CCn2cnc(-c3ccc4c(c3)c(-c3cnn(C)c3)nn4C)c2C1 | BRD4(49-170) bromodomain (Homo sapiens (Human), UniProt O60885) | IC50 | > 10 µM
CNC(=O)N1CCn2c(C3CCC(F)(F)CC3)nc(-c3c(F)ccc4cc(-c5cnc(C)s5)ncc34)c2C1 | BRD4(49-170) bromodomain (Homo sapiens (Human), UniProt O60885) | IC50 | > 25 µM
CC(=O)N1CCn2c(C3CC3)nc(-c3cnc(N)c(OC(F)(F)F)c3)c2C1 | BRD4(49-170) bromodomain (Homo sapiens (Human), UniProt O60885) | IC50 | > 25 µM

* * *

# TARGET OR SYSTEM: BRD4(49-170) bromodomain (Homo sapiens (Human), UniProt O60885)
# METHOD NOTES: BRD4 AlphaScreen Assay
# STUDY CONDITIONS: binding to biotin-H4(1-21) Ac-K5/8/12/16 peptide
// classify: if (IC50 < 10 µM) Criterion met else Criterion not met

MOLECULE | CAT
CNC(=O)N1CCn2c(C3CC(F)(F)C3)nc(-c3c(F)ccc4cc(-c5cnc(C)s5)ncc34)c2C1 [Example 92] | Criterion not met
CNC(=O)c1ccc(-c2cc3cccc(-c4nc(C5CCOCC5)n5c4CN(C(=O)NC)CC5)c3cn2)cn1 [Example 57] | Criterion met
CNC(=O)N1CCn2c(C3CC3)nc(-c3cccc4cc(-c5cnc(C)s5)ncc34)c2C1 [Example 23] | Criterion met
CC(=O)N1CCn2c(C3CC3)nc(N3CCCc4cc(-c5cnn(CC6CC6)c5)ccc43)c2C1 [Example 115] | Criterion not met
CC(=O)N1CCn2c(C3CCN(C)CC3)nc(-c3ccc4c(c3)c(-c3cnn(C)c3)nn4C)c2C1 [Example 54] | Criterion not met
CNC(=O)N1CCn2cnc(-c3ccc4c(c3)c(-c3cnn(C)c3)nn4C)c2C1 [Example 11] | Criterion not met
CNC(=O)N1CCn2c(C3CC3)nc(-c3cccc4nc(-c5cn(C)nc5C)c(C#N)cc34)c2C1 [Example 98] | Criterion met
CNC(=O)c1ccc(-c2cc3cccc(-c4nc(C5CC5)n5c4CN(C(=O)NC)CC5)c3cn2)cn1 [Example 17] | Criterion met
CC(=O)N1CCn2c(C3CC3)nc(N3CCCc4cc(-c5cnn(C6CC6)c5)ccc43)c2C1 [Example 108] | Criterion not met
CC(=O)N1CCn2c(C3CCOC3)nc(-c3cc4c(-c5cnn(C)c5)nn(C)c4cc3F)c2C1 (centres unmarked) [Example 103] | Criterion not met
CNC(=O)N1CCn2c(C3CC3)nc(-c3cccc4nc(-c5cnn(C)c5)c(C(F)(F)F)cc34)c2C1 [Example 62] | Criterion not met

* * *

# TARGET OR SYSTEM: BRD4(49-170) bromodomain (Homo sapiens (Human))
# METHOD NOTES: BRD4 AlphaScreen Assay
# STUDY CONDITIONS: binding to biotin-H4(1-21) Ac-K5/8/12/16 peptide
pIC50: −log10 of the molar value.
Overview of recorded pIC50 for various compounds
MEASURED METRIC: pIC50

TEST SMILES | MEASURED RESULT
CC(=O)N1CCn2c(C3CC3)nc(N3CCCc4cc(-c5cnn(Cc6ccccn6)c5)ccc43)c2C1 | < 4.60
CNC(=O)N1CCn2c(C3CCN(C(C)=O)CC3)nc(-c3ccc4c(c3)c(-c3cnn(C)c3)nn4C)c2C1 | < 5.00
CNC(=O)N1CCn2c(C3CC(F)(F)C3)nc(-c3cccc4nc(-c5cnn(C)c5)c(C(F)F)cc34)c2C1 | < 5.00
CC(=O)N1CCn2c(C3CN(C(C)=O)C3)nc(-c3ccc4c(c3)c(-c3cnn(C)c3)nn4C)c2C1 | < 5.00
CNC(=O)N1CCn2c(C3CC3)nc(N3CCCc4cc(-c5cnn(C)c5)c(C(F)F)cc43)c2C1 | < 5.00
CC(=O)N1CCn2c(C3CC3)nc(N3CCCc4cc(-c5ccc(C(N)=O)cc5)ccc43)c2C1 | < 4.60

* * *

# TARGET OR SYSTEM: GST-CBP(1081-1197) bromodomain (Homo sapiens (Human))
# Sequence (Q92793 1081-1197): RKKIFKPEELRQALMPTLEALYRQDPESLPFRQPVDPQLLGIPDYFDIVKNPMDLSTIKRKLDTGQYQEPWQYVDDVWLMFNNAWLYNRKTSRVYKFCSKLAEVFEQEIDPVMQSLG
# METHOD NOTES: CBP AlphaScreen Assay
# STUDY CONDITIONS: binding to biotin-H4(1-21) Ac-K5/8/12/16 peptide
MEASURED METRIC: log10 IC50 (log10 of the value in nM)

COMPOUND | log10 IC50
CNC(=O)N1CCn2c(C3CCOCC3)nc(-c3c(F)ccc4cc(-c5cnc(C)s5)ncc34)c2C1 [Example 89] | 0.30
CNC(=O)c1nc(-c2ccc3c(c2)c(-c2cnn(C)c2)nn3C)c2n1CCN(C(C)=O)C2 [Example 31] | 2.79
CNC(=O)N1CCn2c(C3CC3)nc(-c3cccc4cc(-c5cnn(C)c5)ncc34)c2C1 [Example 124] | 0.30
CC(=O)N1CCn2c(C3CC3)nc(N3CCCc4cc(-c5cnn(CCO)c5)ccc43)c2C1 [Example 121] | 2.76
CC(=O)N1CCn2c(C3CCS(=O)(=O)CC3)nc(-c3ccc4c(c3)c(-c3cnn(C)c3)nn4C)c2C1 [Example 14] | 2.46
CC(=O)N1CCn2c(C3CC3)nc(N3CCCc4cc(-c5cnn(C6CCC6)c5)ccc43)c2C1 [Example 119] | 2.50
CNC(=O)c1ccc(-c2nc3cccc(-c4nc(C5CC5)n5c4CN(C(=O)NC)CC5)c3cc2C#N)cn1 [Example 99] | 1.04
CC(=O)N1CCn2c(C3CCN(C)CC3)nc(-c3ccc4c(c3)c(-c3cnn(C)c3)nn4C)c2C1 [Example 54] | 2.15
CNC(=O)N1CCn2c(C3CC3)nc(-c3cccc4nc(-c5cn(C)nc5C)c(C#N)cc34)c2C1 [Example 98] | 1.40
CNC(=O)N1CCn2c(C3CCC(F)(F)CC3)nc(-c3cccc4nc(-c5cnn(C)c5)c(C(F)(F)F)cc34)c2C1 [Example 78] | 0.00
CNC(=O)N1Cc2c(-c3cccc4cc(-c5cnn(C)c5)ncc34)nc(C3CC3)n2C(C)C1 (stereo not shown) [Example 126] | 1.59
CNC(=O)N1CCn2c(C3CC(F)(F)C3)nc(-c3c(F)ccc4cc(-c5cnc(C)s5)ncc34)c2C1 [Example 92] | 1.00
CNC(=O)N1CCn2c(C3CCOCC3)nc(-c3c(F)ccc4cc(C5CCOCC5)ncc34)c2C1 [Example 83] | 1.20
